All figures here come from patent US20130303533A1.

Catalogue of molecules with associated Kd
system.name: JAK3 (Homo sapiens)
Sequence (P52333 1-1124): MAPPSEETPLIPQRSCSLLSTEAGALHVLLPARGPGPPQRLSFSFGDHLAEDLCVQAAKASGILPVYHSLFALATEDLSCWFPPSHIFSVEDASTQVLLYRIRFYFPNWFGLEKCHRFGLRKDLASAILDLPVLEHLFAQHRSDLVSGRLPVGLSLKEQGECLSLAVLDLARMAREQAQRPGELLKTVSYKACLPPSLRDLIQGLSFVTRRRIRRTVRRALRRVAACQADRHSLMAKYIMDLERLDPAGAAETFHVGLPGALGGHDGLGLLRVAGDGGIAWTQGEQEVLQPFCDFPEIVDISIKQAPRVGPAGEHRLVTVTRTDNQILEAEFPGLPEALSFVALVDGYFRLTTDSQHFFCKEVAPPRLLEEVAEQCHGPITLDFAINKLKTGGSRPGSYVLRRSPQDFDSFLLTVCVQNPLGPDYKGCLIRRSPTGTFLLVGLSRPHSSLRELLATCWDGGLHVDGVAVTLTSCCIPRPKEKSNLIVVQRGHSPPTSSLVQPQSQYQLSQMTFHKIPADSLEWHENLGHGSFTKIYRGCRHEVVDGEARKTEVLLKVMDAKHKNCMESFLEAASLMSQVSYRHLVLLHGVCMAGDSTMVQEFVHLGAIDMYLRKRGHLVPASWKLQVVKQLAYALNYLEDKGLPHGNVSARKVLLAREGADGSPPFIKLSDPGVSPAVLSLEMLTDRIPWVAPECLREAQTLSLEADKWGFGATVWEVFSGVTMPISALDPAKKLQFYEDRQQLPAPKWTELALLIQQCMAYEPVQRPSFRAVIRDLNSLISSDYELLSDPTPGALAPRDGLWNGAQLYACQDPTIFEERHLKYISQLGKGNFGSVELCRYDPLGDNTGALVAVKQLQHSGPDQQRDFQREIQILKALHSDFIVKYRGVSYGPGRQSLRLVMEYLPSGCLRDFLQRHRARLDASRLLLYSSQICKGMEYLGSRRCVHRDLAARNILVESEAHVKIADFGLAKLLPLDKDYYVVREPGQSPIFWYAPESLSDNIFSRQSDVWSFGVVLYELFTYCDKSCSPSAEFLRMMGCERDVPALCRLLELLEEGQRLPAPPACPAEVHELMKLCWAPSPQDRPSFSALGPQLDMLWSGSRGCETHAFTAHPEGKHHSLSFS

Example molecules with recorded Kd:
Cc1cc(Nc2nc(S(=O)(=O)c3ccc(F)cc3)nc3c2cnn3C(C)(C)C)n[nH]1 = > 100 nM
Cc1cc(Nc2nc(S(=O)(=O)c3ccc(F)cc3)nc3c2cnn3-c2ccccc2)n[nH]1 = > 100 nM
CN(C)C(=O)Cn1ccc2c(Nc3cc[nH]n3)nc(S(=O)(=O)c3ccc(F)cc3)nc21 = ≤ 10 nM
Cc1cc(Nc2nc(C(F)(F)c3ccc(F)cn3)nc3c2cnn3C)n[nH]1 = 10 to 100 nM
C=Cn1ncc2c(Nc3cc(C)[nH]n3)nc(C(F)(F)c3ccc(F)cc3)nc21 = 10 to 100 nM
Cn1ccc2c(Nc3cc[nH]n3)nc([S+]([O-])c3ccc(F)cc3)nc21 (racemic) = 10 to 100 nM

Look up Kd for this molecule: Cc1cc(Nc2nc(C(O)c3ccc(F)cc3)nc3nn(C)cc23)n[nH]1 (racemic)
10 to 100 nM

* * *

Hi! I'm sharing some Kd results obtained with JAK2 (Homo sapiens, UniProt O60674).
Sequence (O60674 whole entry): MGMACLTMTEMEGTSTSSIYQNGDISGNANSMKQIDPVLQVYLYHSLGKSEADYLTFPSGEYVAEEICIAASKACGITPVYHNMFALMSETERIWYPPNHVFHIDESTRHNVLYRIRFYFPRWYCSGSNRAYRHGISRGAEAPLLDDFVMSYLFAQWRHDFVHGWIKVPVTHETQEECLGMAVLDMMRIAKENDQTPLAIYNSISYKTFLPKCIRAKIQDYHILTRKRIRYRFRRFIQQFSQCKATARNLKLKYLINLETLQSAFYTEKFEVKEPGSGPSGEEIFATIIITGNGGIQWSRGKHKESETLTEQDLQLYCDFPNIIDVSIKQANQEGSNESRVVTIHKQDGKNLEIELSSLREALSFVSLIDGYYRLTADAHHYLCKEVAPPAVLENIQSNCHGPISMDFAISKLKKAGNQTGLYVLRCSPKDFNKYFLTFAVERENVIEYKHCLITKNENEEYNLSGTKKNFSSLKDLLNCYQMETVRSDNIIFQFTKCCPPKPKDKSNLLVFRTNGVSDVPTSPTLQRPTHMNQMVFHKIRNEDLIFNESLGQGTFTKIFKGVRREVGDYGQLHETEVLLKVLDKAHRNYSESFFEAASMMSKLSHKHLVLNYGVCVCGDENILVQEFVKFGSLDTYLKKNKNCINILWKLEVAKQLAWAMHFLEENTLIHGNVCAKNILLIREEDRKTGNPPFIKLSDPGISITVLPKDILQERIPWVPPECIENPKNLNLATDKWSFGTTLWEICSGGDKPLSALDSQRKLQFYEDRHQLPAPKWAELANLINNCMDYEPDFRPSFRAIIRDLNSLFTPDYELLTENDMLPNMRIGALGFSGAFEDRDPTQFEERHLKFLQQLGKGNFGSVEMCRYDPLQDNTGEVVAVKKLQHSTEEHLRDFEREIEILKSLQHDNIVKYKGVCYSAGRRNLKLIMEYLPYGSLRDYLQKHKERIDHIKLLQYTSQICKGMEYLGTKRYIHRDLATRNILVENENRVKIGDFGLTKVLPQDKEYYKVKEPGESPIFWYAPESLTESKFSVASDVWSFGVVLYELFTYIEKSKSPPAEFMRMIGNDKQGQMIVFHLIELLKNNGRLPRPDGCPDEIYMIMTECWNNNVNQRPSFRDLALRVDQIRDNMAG

Cc1cc(Nc2nc(C(O)c3ccc(F)cc3)nc3nn(C)cc23)n[nH]1 (racemic) = ≤ 1 nM
CS(=O)(=O)CCn1ccc2c(Nc3cc[nH]n3)nc(S(=O)(=O)c3ccc(F)cc3)nc21 = ≤ 1 nM

Report Kd for Cn1ccc2c(Nc3cc[nH]n3)nc([S+]([O-])c3ccc(F)cc3)nc21 (racemic) please.
≤ 1 nM

What do you get for Cc1cc(Nc2nc(S(=O)(=O)c3ccc(F)cc3)nc3c2ccn3CC(=O)N(C)C)n[nH]1 ?
≤ 1 nM

Please answer likewise for Cn1ccc2c(Nc3cc[nH]n3)nc(S(=O)(=O)c3ccc(F)cc3)nc21
≤ 1 nM

* * *

Parameter pKd, tested on JAK3 (Homo sapiens, UniProt P52333), listed per item.
pKd: −log10 of the molar value.

Form: Entry = Cc1cc(Nc2nc(S(=O)(=O)c3ccc(F)cc3)nc3c2ccn3CCN2CCOCC2)n[nH]1 [Example 19] | System = JAK3 (Homo sapiens, UniProt P52333) | pKd = ____
≥ 8.00

Same lookup for CCn1ccc2c(Nc3cc(C)[nH]n3)nc(S(=O)(=O)c3ccc(F)cc3)nc21 [Example 7] , please.
≥ 8.00

Entry to check: Cc1cc(Nc2nc(S(=O)(=O)c3ccc(F)cc3)nc3[nH]ccc23)n[nH]1 [Example 4]
≥ 8.00

Another compound to check: Cc1cc(Nc2nc(S(=O)(=O)c3ccc(F)cc3)nc3c2ccn3C(C)C)n[nH]1 [Example 10]
≥ 8.00

Same question, Cc1cc(Nc2nc(S(=O)(=O)c3ccc(F)cc3)nc3c2cnn3CCO)n[nH]1 [Example 23] this time
7.00 to 8.00

Same again, this time with Cc1cc(Nc2nc(S(=O)(=O)c3ccc(F)cc3)nc3c2ccn3CCS(C)(=O)=O)n[nH]1 [Example 17]
≥ 8.00

What do you have for O=S(=O)(c1ccc(F)cc1)c1nc(Nc2cc[nH]n2)c2cc[nH]c2n1 [Example 3] ?
≥ 8.00

What about Cc1cc(Nc2nc(C(F)(F)c3ccc(F)cc3)nc3nc(N4CCCC4)sc23)n[nH]1 [Example 36] ?
7.00 to 8.00

* * *

For reference, Kd measured on JAK2 (Homo sapiens, UniProt O60674):

Record excerpt, results attached:
COc1nc2nc(C(F)(F)c3ccc(F)cc3)nc(Nc3cc(C)[nH]n3)c2s1 = 1 to 10 nM
CCn1ncc2c(Nc3cc(C)[nH]n3)nc(S(=O)(=O)c3ccc(F)cc3)nc21 = ≤ 1 nM
CCn1ncc2c(Nc3cc(C)[nH]n3)nc(Sc3ccc(F)cc3)nc21 = > 10 nM
Cc1cc(Nc2nc(C(F)(F)c3ccc(F)cn3)nc3c2cnn3C)n[nH]1 = ≤ 1 nM
O=S(=O)(c1ccc(F)cc1)c1nc(Nc2cc[nH]n2)c2cc[nH]c2n1 = ≤ 1 nM

Which measured Kd value corresponds to Cc1cc(Nc2nc(C(F)(F)c3ccc(F)cc3)nc3ncsc23)n[nH]1 ?
1 to 10 nM

Continue with [O-][S+](c1ccc(F)cc1)c1nc(Nc2cc[nH]n2)c2cc[nH]c2n1 (racemic)
≤ 1 nM

# iterate: Cc1cc(Nc2nc(C(F)(F)c3ccc(F)cc3)nc3nc(C#N)sc23)n[nH]1
1 to 10 nM

What do you get for Cc1cc(Nc2nc(C(F)(F)c3ccc(F)cc3)nc3nc(N4CCOCC4)sc23)n[nH]1 ?
≤ 1 nM

Would you mind doing CCn1ccc2c(Nc3cc(OC)[nH]n3)nc(S(=O)(=O)c3ccc(F)cc3)nc21 as well?
≤ 1 nM

Record: Cc1cc(Nc2nc(S(=O)(=O)c3ccc(F)cc3)nc3c2cnn3CCO)n[nH]1
≤ 1 nM

Would you kindly repeat that for C=Cn1ncc2c(Nc3cc(C)[nH]n3)nc(C(F)(F)c3ccc(F)cc3)nc21 ?
1 to 10 nM

* * *

system.name: JAK3 (Homo sapiens)
Sequence (P52333 1-1124): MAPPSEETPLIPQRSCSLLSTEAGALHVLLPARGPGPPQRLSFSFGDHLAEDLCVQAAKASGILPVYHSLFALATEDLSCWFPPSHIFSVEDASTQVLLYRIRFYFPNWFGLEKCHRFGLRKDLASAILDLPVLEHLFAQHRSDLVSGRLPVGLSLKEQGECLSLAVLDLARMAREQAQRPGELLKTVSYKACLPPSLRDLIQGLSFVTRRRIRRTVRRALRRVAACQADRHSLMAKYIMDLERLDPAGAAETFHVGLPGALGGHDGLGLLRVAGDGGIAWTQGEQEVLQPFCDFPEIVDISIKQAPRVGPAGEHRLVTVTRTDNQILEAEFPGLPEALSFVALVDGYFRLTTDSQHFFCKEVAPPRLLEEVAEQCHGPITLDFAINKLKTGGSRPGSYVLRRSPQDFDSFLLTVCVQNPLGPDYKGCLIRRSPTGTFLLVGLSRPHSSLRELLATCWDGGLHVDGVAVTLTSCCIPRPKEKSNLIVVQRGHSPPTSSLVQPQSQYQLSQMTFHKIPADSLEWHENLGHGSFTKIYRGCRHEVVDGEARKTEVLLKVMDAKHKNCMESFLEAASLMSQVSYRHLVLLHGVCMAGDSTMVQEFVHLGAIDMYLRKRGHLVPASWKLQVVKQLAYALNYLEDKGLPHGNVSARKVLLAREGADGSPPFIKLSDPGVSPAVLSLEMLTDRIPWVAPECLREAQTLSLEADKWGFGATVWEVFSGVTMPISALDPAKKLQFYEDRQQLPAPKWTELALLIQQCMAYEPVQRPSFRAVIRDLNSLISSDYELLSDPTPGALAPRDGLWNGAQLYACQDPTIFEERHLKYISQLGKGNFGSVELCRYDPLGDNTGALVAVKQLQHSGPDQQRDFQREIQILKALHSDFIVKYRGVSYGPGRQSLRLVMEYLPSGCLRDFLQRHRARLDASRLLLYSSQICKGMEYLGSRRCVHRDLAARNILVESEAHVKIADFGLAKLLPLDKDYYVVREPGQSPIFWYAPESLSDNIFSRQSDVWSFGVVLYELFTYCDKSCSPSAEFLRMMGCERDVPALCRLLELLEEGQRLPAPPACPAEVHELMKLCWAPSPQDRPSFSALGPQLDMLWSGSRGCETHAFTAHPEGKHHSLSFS
Kd by entry:

CNc1nc2nc(C(F)(F)c3ccc(F)cc3)nc(Nc3cc(C)[nH]n3)c2s1 = ≤ 10 nM
CS(=O)(=O)CCn1ccc2c(Nc3cc[nH]n3)nc(S(=O)(=O)c3ccc(F)cc3)nc21 = ≤ 10 nM
COc1nc2nc(C(F)(F)c3ccc(F)cc3)nc(Nc3cc(C)[nH]n3)c2s1 = 10 to 100 nM

Now look at this one.
# Kd lookup, item CSc1nc2nc(C(F)(F)c3ccc(F)cc3)nc(Nc3cc(C)[nH]n3)c2s1
10 to 100 nM
